# pIC50 listing for each entry below
biological target: KRAS WT (Homo sapiens (Human), UniProt P01116+P62937); test: Ras-Raf disruption/FRET/MOA assay (BRAF RBD, Cyclophilin A); type: biochemical; settings: read-out: KRAS WT FRET data IC50
Sequence (P01116 other isoform, or with tags, fused parts or gaps, one chain of several): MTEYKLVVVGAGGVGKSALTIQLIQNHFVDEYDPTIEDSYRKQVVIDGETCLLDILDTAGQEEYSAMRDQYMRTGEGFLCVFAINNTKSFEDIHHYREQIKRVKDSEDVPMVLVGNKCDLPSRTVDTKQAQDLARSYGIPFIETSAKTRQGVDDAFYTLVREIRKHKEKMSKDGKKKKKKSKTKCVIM
pIC50: −log10 of the molar value.
observed-property: pIC50

- molecule: "CCn1c(-c2cccnc2[C@H](C)OC)c2c3cc(ccc31)-c1csc(n1)C[C@H](NC(=O)[C@H](C(C)C)N(C)C(=O)N1C[C@@H]3[C@@H](C1)OCCN3C)C(=O)N1CCC[C@H](N1)C(=O)OCC(C)(C)C2"
  test-result: "6.00 to 7.00"
- molecule: "CCn1c(-c2cccnc2[C@H](C)OC)c2c3cc(ccc31)-c1csc(n1)C[C@H](NC(=O)[C@H](C(C)C)N(C)C(=O)N(C)C[C@H]1CCN1C)C(=O)N1CCC[C@H](N1)C(=O)OCC(C)(C)C2"
  test-result: "6.00 to 7.00"
- molecule: "CCn1c(-c2cccnc2[C@H](C)OC)c2c3cc(ccc31)-c1csc(n1)C[C@H](NC(=O)[C@H](C(C)C)N1CCC3(CN(S(C)(=O)=O)C3)C1=O)C(=O)N1CCC[C@H](N1)C(=O)OCC(C)(C)C2"
  test-result: "5.00 to 6.00"
- molecule: "CCn1c(-c2cccnc2[C@H](C)OC)c2c3cc(ccc31)-c1csc(n1)C[C@H](NC(=O)[C@H](C(C)C)N(C)C(=O)N1CC(C(=O)N3CCOCC3)C1)C(=O)N1CCC[C@H](N1)C(=O)OCC(C)(C)C2"
  test-result: "6.00 to 7.00"
- molecule: "CCn1c(-c2cccnc2[C@H](C)OC)c2c3cc(ccc31)-c1csc(n1)C[C@H](NC(=O)[C@H](C(C)C)N(C)C(=O)N(C)C1(C)COC1)C(=O)N1CCC[C@H](N1)C(=O)OCC(C)(C)C2"
  test-result: "6.00 to 7.00"
- molecule: "CCn1c(-c2cccnc2[C@H](C)OC)c2c3cc(ccc31)-c1cc(O)cc(c1)C[C@H](NC(=O)[C@H](C(C)C)N(C)C(=O)N1CC(OC)C1)C(=O)N1CCC[C@H](N1)C(=O)OCC(C)(C)C2"
  test-result: "6.00 to 7.00"
- molecule: "CCn1c(-c2cccnc2[C@H](C)OC)c2c3cc(ccc31)-c1cc(O)cc(c1)C[C@H](NC(=O)[C@H](C(C)C)N(C)C(=O)C1CC3(CCOCC3)CO1)C(=O)N1CCC[C@H](N1)C(=O)OCC(C)(C)C2 (stereo partly drawn)"
  test-result: "7.00 to 8.00"
- molecule: "CCn1c(-c2cc(N3CCN(C)CC3)cnc2[C@H](C)OC)c2c3cc(ccc31)-c1csc(n1)C[C@H](NC(=O)[C@H](C(C)C)N(C)C(=O)[C@@H]1OCC[C@@H]1c1cccnc1)C(=O)N1CCC[C@H](N1)C(=O)OCC(C)(C)C2"
  test-result: "6.00 to 7.00"
- molecule: "CCn1c(-c2cccnc2[C@H](C)OC)c2c3cc(ccc31)-c1csc(n1)C[C@H](NC(=O)[C@H](C(C)C)N(C)C(=O)N1CCN(C)[C@@H](c3ccccc3)C1)C(=O)N1CCC[C@H](N1)C(=O)OCC(C)(C)C2"
  test-result: "6.00 to 7.00"

###

# pIC50 listing for each entry below
molecular target: KRAS G12V (Homo sapiens (Human), UniProt P01116+P62937, G12V); assay: Ras-Raf disruption/FRET/MOA assay (BRAF RBD, Cyclophilin A); format: biochemical; conditions: read-out: KRAS G12V FRET IC50
Sequence (P01116 other isoform, or with tags, fused parts or gaps G12V): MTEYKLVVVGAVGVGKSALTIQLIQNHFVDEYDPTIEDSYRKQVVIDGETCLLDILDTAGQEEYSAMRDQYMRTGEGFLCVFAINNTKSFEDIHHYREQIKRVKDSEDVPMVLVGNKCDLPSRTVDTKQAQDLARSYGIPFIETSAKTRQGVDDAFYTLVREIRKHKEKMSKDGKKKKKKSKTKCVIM
Sequence (P62937 whole entry): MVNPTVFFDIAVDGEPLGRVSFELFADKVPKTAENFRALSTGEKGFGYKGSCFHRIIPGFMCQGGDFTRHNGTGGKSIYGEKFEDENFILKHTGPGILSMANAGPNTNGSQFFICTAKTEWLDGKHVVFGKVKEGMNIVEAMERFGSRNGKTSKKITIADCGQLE
pIC50: −log10 of the molar value.

- compound: "CCn1c(-c2cccnc2[C@H](C)OC)c2c3cc(ccc31)-c1csc(n1)C[C@H](NC(=O)[C@H](C(C)C)N(C)C(=O)N1CCC[C@H](N(C)C)CC1)C(=O)N1CCC[C@H](N1)C(=O)OCC(C)(C)C2"
  pIC50: "6.00 to 7.00"
- compound: "CCN(C)C(=O)N(C)[C@H](C(=O)N[C@H]1Cc2nc(cs2)-c2ccc3c(c2)c(c(-c2cccnc2[C@H](C)OC)n3CC)CC(C)(C)COC(=O)[C@@H]2CCCN(N2)C1=O)C(C)C"
  pIC50: "6.00 to 7.00"
- compound: "CCn1c(-c2cccnc2[C@H](C)OC)c2c3cc(ccc31)-c1csc(n1)C[C@H](NC(=O)[C@H](C(C)C)N(C)C(=O)[C@H]1CCN(S(C)(=O)=O)C1)C(=O)N1CCC[C@H](N1)C(=O)OCC(C)(C)C2"
  pIC50: "5.00 to 6.00"
- compound: "CCn1c(-c2cccnc2[C@H](C)OC)c2c3cc(ccc31)-c1csc(n1)C[C@H](NC(=O)[C@H](C(C)C)N(C)C(=O)N1CC3(CN(C)C3)C1)C(=O)N1CCC[C@H](N1)C(=O)OCC(C)(C)C2"
  pIC50: "6.00 to 7.00"
- compound: "CCn1c(-c2cccnc2[C@H](C)OC)c2c3cc(ccc31)-c1csc(n1)C[C@H](NC(=O)C1(F)CCC1)C(=O)N1CCC[C@H](N1)C(=O)OCC(C)(C)C2"
  pIC50: "6.00 to 7.00"
- compound: "CCn1c(-c2cnccc2COC)c2c3cc(ccc31)-c1cc(O)cc(c1)C[C@H](NC(=O)[C@H](C(C)C)N(C)C(=O)CCCCN)C(=O)N1CCC[C@H](N1)C(=O)OCC(C)(C)C2"
  pIC50: "5.00 to 6.00"
- compound: "CCn1c(-c2cccnc2[C@H](C)OC)c2c3cc(ccc31)-c1csc(n1)C[C@H](NC(=O)N1CCC1)C(=O)N1CCC[C@H](N1)C(=O)OCC(C)(C)C2 [Compound A368]"
  pIC50: "6.00 to 7.00"
- compound: "CCn1c(-c2cnccc2COC)c2c3cc(ccc31)-c1cc(O)cc(c1)C[C@H](NC(=O)[C@H](C(C)C)N(C)C(=O)CN/C(N)=N/C#N)C(=O)N1CCC[C@H](N1)C(=O)OCC(C)(C)C2"
  pIC50: "6.00 to 7.00"
- compound: "CCn1c(-c2cccnc2[C@H](C)OC)c2c3cc(ccc31)-c1csc(n1)C[C@H](NC(=O)N1CCC1)C(=O)N1CCC[C@H](N1)C(=O)OCC(C)(C)C2 [Compound A369]"
  pIC50: "6.00 to 7.00"

###

target: KRAS G12C (Homo sapiens (Human), UniProt P01116+P62937, G12C); experiment: Ras-Raf disruption/FRET/MOA assay (BRAF RBD, Cyclophilin A); type: biochemical; details: read-out: KRAS G12C FRET IC50
Sequence (P01116-2 other isoform, or with tags, fused parts or gaps G12C, one chain of several): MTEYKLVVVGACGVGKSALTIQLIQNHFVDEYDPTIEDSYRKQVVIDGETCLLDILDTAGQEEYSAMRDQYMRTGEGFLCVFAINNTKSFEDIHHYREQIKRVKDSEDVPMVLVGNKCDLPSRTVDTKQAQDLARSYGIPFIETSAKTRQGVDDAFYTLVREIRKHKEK
# IC50 listing for each entry below

- chem-smiles: "CCn1c(-c2cccnc2[C@H](C)OC)c2c3cc(ccc31)-c1cccc(c1)C[C@H](NC(=O)[C@H](C(C)C)N(C)C(=O)[C@H]1CCNC1)C(=O)N1CCC[C@H](N1)C(=O)OCC(C)(C)C2"
  IC50: "1 to 10 µM"
- chem-smiles: "CCn1c(-c2cccnc2[C@H](C)OC)c2c3cc(ccc31)-c1cc(O)cc(c1)C[C@H](NC(=O)[C@H](C(C)C)N(C)C(=O)OCc1ccccc1)C(=O)N1CCC[C@H](N1)C(=O)OCC(C)(C)C2"
  IC50: "1 to 10 µM"
- chem-smiles: "CCn1c(-c2cccnc2[C@H](C)OC)c2c3cc(ccc31)-c1cccc(c1)C[C@H](NC(=O)[C@H](C(C)C)N(C)C(=O)[C@@H]1OCC[C@@H]1c1ccccc1)C(=O)N1CCC[C@H](N1)C(=O)OCC(C)(C)C2"
  IC50: "0.01 to 0.1 µM"
- chem-smiles: "CCn1c(-c2cccnc2[C@H](C)OC)c2c3cc(ccc31)-c1csc(n1)C[C@H](NC(=O)[C@H](C(C)C)N(C)C(=O)[C@H]1CCN(C(C)=O)C1)C(=O)N1CCC[C@H](N1)C(=O)OCC(C)(C)C2"
  IC50: "1 to 10 µM"
- chem-smiles: "CCn1c(-c2cccnc2COC)c2c3cc(ccc31)-c1cc(O)cc(c1)C[C@H](NC(=O)[C@H](C(C)C)N(C)C(=O)OC1COC1)C(=O)N1CCC[C@H](N1)C(=O)OCC(C)(C)C2"
  IC50: "0.1 to 1 µM"

###

biological target: KRAS G12S (Homo sapiens (Human), UniProt P01116+P62937, G12S); experiment: Ras-Raf disruption/FRET/MOA assay (BRAF RBD, Cyclophilin A); format: biochemical; details: read-out: KRAS G12S FRET IC50
Sequence (P01116 other isoform, or with tags, fused parts or gaps G12S, one chain of several): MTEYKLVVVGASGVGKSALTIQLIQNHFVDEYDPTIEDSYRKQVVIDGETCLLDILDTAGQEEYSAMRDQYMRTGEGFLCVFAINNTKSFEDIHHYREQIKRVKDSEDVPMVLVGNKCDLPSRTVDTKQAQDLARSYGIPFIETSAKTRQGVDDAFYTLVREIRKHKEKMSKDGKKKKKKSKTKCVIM
observed-property: IC50

- chem-smiles: "CCn1c(-c2cccnc2[C@H](C)OC)c2c3cc(ccc31)-c1csc(n1)C[C@H](NC(=O)[C@H](C(C)C)N(C)C(=O)N1CCOC[C@H]1C)C(=O)N1CCC[C@H](N1)C(=O)OCC(C)(C)C2"
  observed-property: "IC50"
  test-result: "100 to 1000 nM"
- chem-smiles: "CCn1c(-c2cccnc2[C@H](C)OC)c2c3cc(ccc31)-c1csc(n1)C[C@H](NC(=O)[C@H](C(C)C)N(C)C(=O)N1CC(Cc3cnn(C)c3)C1)C(=O)N1CCC[C@H](N1)C(=O)OCC(C)(C)C2"
  observed-property: "IC50"
  test-result: "10 to 100 nM"
- chem-smiles: "CCn1c(-c2cccnc2[C@H](C)OC)c2c3cc(ccc31)-c1csc(n1)C[C@H](NC(=O)[C@H](C(C)C)N1CCC3(CN(S(C)(=O)=O)C3)C1=O)C(=O)N1CCC[C@H](N1)C(=O)OCC(C)(C)C2"
  observed-property: "IC50"
  test-result: "> 10000 nM"
- chem-smiles: "CCn1c(-c2cccnc2[C@H](C)OC)c2c3cc(ccc31)-c1csc(n1)C[C@H](NC(=O)[C@H](C(C)C)N(C)C(=O)N1CC3CCC1CN3C)C(=O)N1CCC[C@H](N1)C(=O)OCC(C)(C)C2"
  observed-property: "IC50"
  test-result: "1000 to 10000 nM"
- chem-smiles: "CCn1c(-c2cccnc2[C@H](C)OC)c2c3cc(ccc31)-c1cc(O)cc(c1)C[C@H](NC(=O)[C@H](C(C)C)N(C)C(=O)[C@@H]1CCN(C(=O)[C@]3(C)CCCN3C)C1)C(=O)N1CCC[C@H](N1)C(=O)OCC(C)(C)C2"
  observed-property: "IC50"
  test-result: "10 to 100 nM"
